The measured values listed here are drawn from patent US11965039B2.

biological target: Human C3 (Complement tech cat #A113c) (human, UniProt P01024 23-1663); experiment: cell-based or functional assay
Sequence (P01024 23-1663 limits assumed): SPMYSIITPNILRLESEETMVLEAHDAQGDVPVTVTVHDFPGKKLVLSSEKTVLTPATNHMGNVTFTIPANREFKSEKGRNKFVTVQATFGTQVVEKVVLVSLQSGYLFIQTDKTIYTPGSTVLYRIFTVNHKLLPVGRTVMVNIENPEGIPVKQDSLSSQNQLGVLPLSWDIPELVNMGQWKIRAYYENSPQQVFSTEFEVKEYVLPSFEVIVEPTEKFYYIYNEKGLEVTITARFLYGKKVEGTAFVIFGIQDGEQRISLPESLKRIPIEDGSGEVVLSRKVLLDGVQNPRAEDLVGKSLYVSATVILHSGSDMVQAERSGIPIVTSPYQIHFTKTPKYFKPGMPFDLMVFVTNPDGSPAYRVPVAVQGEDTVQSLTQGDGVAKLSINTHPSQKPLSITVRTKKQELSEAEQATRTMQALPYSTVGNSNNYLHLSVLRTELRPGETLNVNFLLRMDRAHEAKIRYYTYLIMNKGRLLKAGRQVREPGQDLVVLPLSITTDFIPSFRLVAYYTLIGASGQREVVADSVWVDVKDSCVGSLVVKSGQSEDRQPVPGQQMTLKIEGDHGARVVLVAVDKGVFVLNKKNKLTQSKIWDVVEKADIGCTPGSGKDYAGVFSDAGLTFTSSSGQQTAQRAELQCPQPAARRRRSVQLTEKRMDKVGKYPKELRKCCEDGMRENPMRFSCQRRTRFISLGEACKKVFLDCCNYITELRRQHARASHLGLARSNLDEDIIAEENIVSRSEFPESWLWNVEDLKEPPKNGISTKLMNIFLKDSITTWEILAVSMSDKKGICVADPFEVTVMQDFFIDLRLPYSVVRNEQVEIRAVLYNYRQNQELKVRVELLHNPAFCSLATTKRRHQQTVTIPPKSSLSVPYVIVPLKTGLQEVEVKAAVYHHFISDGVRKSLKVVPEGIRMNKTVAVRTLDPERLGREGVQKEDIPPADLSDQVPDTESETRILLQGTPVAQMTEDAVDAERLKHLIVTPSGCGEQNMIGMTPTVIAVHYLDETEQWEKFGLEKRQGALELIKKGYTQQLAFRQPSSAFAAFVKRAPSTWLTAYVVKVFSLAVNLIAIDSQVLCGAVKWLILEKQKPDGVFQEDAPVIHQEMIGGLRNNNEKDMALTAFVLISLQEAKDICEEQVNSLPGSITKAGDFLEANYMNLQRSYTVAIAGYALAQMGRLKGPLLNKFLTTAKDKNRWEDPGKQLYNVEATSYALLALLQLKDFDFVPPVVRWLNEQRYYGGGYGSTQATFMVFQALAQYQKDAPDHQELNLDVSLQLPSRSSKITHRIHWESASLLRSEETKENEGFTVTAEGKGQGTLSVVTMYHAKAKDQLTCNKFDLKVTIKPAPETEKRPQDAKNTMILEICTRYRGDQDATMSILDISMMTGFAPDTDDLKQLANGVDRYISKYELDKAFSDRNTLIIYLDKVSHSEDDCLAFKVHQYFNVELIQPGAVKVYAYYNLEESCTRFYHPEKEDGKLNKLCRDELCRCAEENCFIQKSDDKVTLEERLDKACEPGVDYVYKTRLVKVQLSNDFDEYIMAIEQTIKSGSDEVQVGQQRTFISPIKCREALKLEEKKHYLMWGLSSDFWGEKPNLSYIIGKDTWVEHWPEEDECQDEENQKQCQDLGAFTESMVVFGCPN
Positions of bridges follow the written chain, without caps; N, C: chain ends. Non-standard residues stand in square brackets, D forms with d. Trp(1-Me) = Cn1cc(C[C@H](N)C(=O)O)c2ccccc21; 2Nal = N[C@@H](Cc1ccc2ccccc2c1)C(=O)O; AEEA = NCCOCCOCC(=O)O; Sar = CNCC(=O)O
For each of the binders below, state its inhibition of hemolysis IC50.

| BINDER | VALUE KIND | MEAS VALUE |
| --- | --- | --- |
| Ac-SEFCI[Trp(1-Me)]QDWGEHRC[Sar]EGE-{AEEA-AEEA-K(γGlu-Gly-γGlu-15-carboxy-pentadecanoyl)-NH2} (disulfide 4-14) [Compound 127] | inhibition of hemolysis IC50 | < 100 nM |
| Ac-YCI[2Nal]QDWGEHRCTGAES-NH2 (disulfide 2-12; SMILES CC[C@H](C)[C@@H]1NC(=O)[C@@H](NC(=O)[C@H](Cc2ccc(O)cc2)NC(C)=O)CSSC[C@@H](C(=O)N[C@H](C(=O)NCC(=O)N[C@@H](C)C(=O)N[C@@H](CCC(=O)O)C(=O)N[C@@H](CO)C(N)=O)[C@@H](C)O)NC(=O)[C@H](CCCNC(=N)N)NC(=O)[C@H](Cc2c[nH]cn2)NC(=O)[C@H](CCC(=O)O)NC(=O)CNC(=O)[C@H](Cc2c[nH]c3ccccc23)NC(=O)[C@H](CC(=O)O)NC(=O)[C@H](CCC(N)=O)NC(=O)[C@H](Cc2ccc3ccccc3c2)NC1=O) [Compound 65] | inhibition of hemolysis IC50 | < 100 nM |

Next item in the queue.
Problem: Tell me its inhibition of hemolysis IC50 given Ac-ICI[Trp(1-Me)]QDWGEHRCTGAES-NH2 (disulfide 2-12; SMILES CC[C@H](C)[C@H](NC(C)=O)C(=O)N[C@H]1CSSC[C@@H](C(=O)N[C@H](C(=O)NCC(=O)N[C@@H](C)C(=O)N[C@@H](CCC(=O)O)C(=O)N[C@@H](CO)C(N)=O)[C@@H](C)O)NC(=O)[C@H](CCCNC(=N)N)NC(=O)[C@H](Cc2c[nH]cn2)NC(=O)[C@H](CCC(=O)O)NC(=O)CNC(=O)[C@H](Cc2c[nH]c3ccccc23)NC(=O)[C@H](CC(=O)O)NC(=O)[C@H](CCC(N)=O)NC(=O)[C@H](Cc2cn(C)c3ccccc23)NC(=O)[C@H]([C@@H](C)CC)NC1=O) [Compound 51] as the entry.
Solution: < 100 nM
